# System: IL3000 T. congolense (drug sensitive) strain
# TEST DESCRIPTION: In vitro Alamar Blue 72 hrs drug sensitivity assay for T. congolense
# Type: cell-based
# CONDITION DETAILS: Trypanosoma congolense, IL3000 T. congolense bloodstream form, read-out: T. congo Act.
pIC50: −log10 of the molar value.
Give measured pIC50 for each item. Keep answers brief.

## Task Specify measured pIC50 for CN(C)C[C@H]1CC[C@@H](n2c(Nc3cccc(C(F)(F)F)c3)nc3cnc(NC4(C)CCOCC4)nc32)CC1 .
## Result > 6.82

## Task Specify measured pIC50 for CC(=O)NC1CCC(n2c(Nc3cccc(Cl)c3)nc3cnc(NC4(C)CCOCC4)nc32)CC1 (centres unmarked) .
## Result 6.30 to 6.46

## Task Specify measured pIC50 for CNc1ncc2nc(Nc3cccc(Cl)c3)n(C3CCC(CN)CC3)c2n1 (centres unmarked) .
## Result 6.30 to 6.46

## Task Specify measured pIC50 for CC1(Nc2ncc3nc(Nc4ccc(OC(F)(F)F)cc4)n([C@H]4CC[C@@H](CN)CC4)c3n2)CCOCC1 .
## Result > 6.82

## Task Specify measured pIC50 for CC(C)(CO)Nc1ncc2nc(Nc3cccc(Cl)c3)n(C3CCC(CN)CC3)c2n1 (centres unmarked) .
## Result 6.46 to 6.82

## Task Specify measured pIC50 for COC(=O)NC[C@H]1CC[C@@H](n2c(Nc3cccc(Cl)c3)nc3cnc(NC4(C)CCOCC4)nc32)CC1 .
## Result 6.46 to 6.82

## Task Specify measured pIC50 for NC1CCC(n2c(Nc3cccc(Cl)c3)nc3cnc(NC4CC4)nc32)CC1 (centres unmarked) .
## Result 6.30 to 6.46

## Task Specify measured pIC50 for NCC1CCC(n2c(Nc3cccc(Cl)c3)nc3cnc(NCC(F)(F)F)nc32)CC1 (centres unmarked) .
## Result 6.30 to 6.46

---

# Test system: IL3000 T. congolense (drug sensitive) strain
# TEST DESCRIPTION: In vitro Alamar Blue 72 hrs drug sensitivity assay for T. congolense
# Type: cell-based
# CONDITION DETAILS: Trypanosoma congolense, IL3000 T. congolense bloodstream form, read-out: T. congo Act.
EXPERIMENTAL ENDPOINT: IC50

## Task Specify measured IC50 for CC1(Nc2ncc3nc(Nc4cccc(Cl)c4)n([C@H]4CC[C@@H](CN)CC4)c3n2)CC1 .
## Result < 150 nM

## Task Specify measured IC50 for NCC1CCC(n2c(Nc3cc(Cl)cc(C(F)(F)F)c3)nc3cnc(NC4CCOCC4)nc32)CC1 (centres unmarked) .
## Result 350 to 500 nM

## Task Specify measured IC50 for CC1(Nc2ncc3nc(Nc4cccc(Cl)c4)n(C4CCC(CN)CC4)c3n2)CCOCC1 (centres unmarked) .
## Result < 150 nM

## Task Specify measured IC50 for CC1(Nc2ncc3nc(Nc4cccc(Cl)c4)n([C@H]4CC[C@H](CO)CC4)c3n2)CCOCC1 .
## Result 150 to 350 nM

## Task Specify measured IC50 for CC1(Nc2ncc3nc(Nc4ccc(C(F)(F)F)cc4)n([C@H]4CC[C@@H](CN)CC4)c3n2)CCOCC1 .
## Result 150 to 350 nM

## Task Specify measured IC50 for CC(C)(C)Nc1ncc2nc(Nc3ccc(C(F)(F)F)cc3)n([C@H]3CC[C@@H](CN)CC3)c2n1 .
## Result 150 to 350 nM

## Task Specify measured IC50 for CC1(Nc2ncc3nc(Nc4cccc(F)c4F)n(C4CCC(CN)CC4)c3n2)CCOCC1 (centres unmarked) .
## Result < 150 nM

## Task Specify measured IC50 for CC1(Nc2ncc3nc(Nc4cccc(Cl)c4)n([C@H]4CC[C@@H](CN)CC4)c3n2)CCC1 .
## Result < 150 nM

---

# System: IL3000 T. congolense (drug sensitive) strain
# TEST DESCRIPTION: In vitro Alamar Blue 72 hrs drug sensitivity assay for T. congolense
# Format: cell-based
# CONDITION DETAILS: Trypanosoma congolense, IL3000 T. congolense bloodstream form, read-out: T. congo Act.
pIC50: −log10 of the molar value.
Give measured pIC50 for each item. Keep answers brief.

## Task Specify measured pIC50 for CC1(Nc2ncc3nc(Nc4ccccn4)n(C4CCC(CN)CC4)c3n2)CCOCC1 (centres unmarked) .
## Result 6.30 to 6.46

## Task Specify measured pIC50 for Cc1ccc(Nc2nc3cnc(NC(C)(C)C)nc3n2C2CCC(CN)CC2)cc1 (centres unmarked) .
## Result 6.30 to 6.46

## Task Specify measured pIC50 for CC1(Nc2ncc3nc(Nc4ccc(C(F)(F)F)cc4)n(C4CCC(CN)CC4)c3n2)CCCC1 (centres unmarked) .
## Result 6.30 to 6.46

## Task Specify measured pIC50 for CNC[C@H]1CC[C@@H](n2c(Nc3cccc(C(F)(F)F)c3)nc3cnc(NC4(C)CCOCC4)nc32)CC1 .
## Result > 6.82

## Task Specify measured pIC50 for CC1(Nc2ncc3nc(Nc4cc(Cl)ccc4F)n([C@H]4CC[C@@H](CN)CC4)c3n2)CCOCC1 .
## Result > 6.82

---

# Tested on: IL3000 T. congolense (drug sensitive) strain
# TEST DESCRIPTION: In vitro Alamar Blue 72 hrs drug sensitivity assay for T. congolense
# Assay type: cell-based
# CONDITION DETAILS: Trypanosoma congolense, IL3000 T. congolense bloodstream form, read-out: T. congo Act.
# Protocol: In Vitro Alamar Blue 72 Hrs Drug Sensitivity Assay for T. Congolense. Compounds were tested in vitro for chemotherapeutic efficacy against the IL3000 T. congolense (drug sensitive) strain using an Alamar Blue assay. Test compounds were prepared as 10 mg/mL DMSO stocks for each assay run. […] Plates were then read using a fluorescent plate reader (Spectramax, Gemini XS, Bucher Biotec, Basel, Switzerland) using an excitation wavelength of 536 nm and an emission wavelength of 588 nm. […]
pIC50: −log10 of the molar value.
EXPERIMENTAL ENDPOINT: pIC50

## Task Print IL3000 T. congolense (drug sensitive) strain pIC50 for CCC(C)(C)Nc1ncc2nc(Nc3ccc(C(F)(F)F)cc3)n([C@H]3CC[C@@H](CN)CC3)c2n1 .
## Result 6.30 to 6.46

## Task Print IL3000 T. congolense (drug sensitive) strain pIC50 for CN(C)c1ncc2nc(Nc3cccc(Cl)c3)n(C3CCC(CN)CC3)c2n1 (stereo not drawn) .
## Result 6.30 to 6.46

## Task Print IL3000 T. congolense (drug sensitive) strain pIC50 for CN(C)c1ncc2nc(Nc3cc(C(F)(F)F)ccc3F)n(C3CCC(CN)CC3)c2n1 (stereo not drawn) .
## Result 6.30 to 6.46

## Task Print IL3000 T. congolense (drug sensitive) strain pIC50 for CC1(Nc2ncc3nc(Nc4cccc(C(F)(F)F)c4)n(C4CCC(CN)CC4)c3n2)CCCC1 (stereo not drawn) .
## Result 6.30 to 6.46

## Task Print IL3000 T. congolense (drug sensitive) strain pIC50 for CC1(Nc2ncc3nc(Nc4ccnc(C(F)(F)F)c4)n([C@H]4CC[C@@H](CN)CC4)c3n2)CCOCC1 .
## Result > 6.82

## Task Print IL3000 T. congolense (drug sensitive) strain pIC50 for CCC(C)(C)Nc1ncc2nc(Nc3cccc(C(F)(F)F)c3)n([C@H]3CC[C@@H](CN)CC3)c2n1 .
## Result > 6.82

## Task Print IL3000 T. congolense (drug sensitive) strain pIC50 for NCC1CCC(n2c(Nc3cccc(Cl)c3F)nc3cnc(NC4CCOCC4)nc32)CC1 (stereo not drawn) .
## Result > 6.82

## Task Print IL3000 T. congolense (drug sensitive) strain pIC50 for CC1(Nc2ncc3nc(Nc4cccc(Cl)c4F)n([C@H]4CC[C@@H](CN)CC4)c3n2)CCOCC1 .
## Result > 6.82

## Task Print IL3000 T. congolense (drug sensitive) strain pIC50 for CC1(Nc2ncc3nc(Nc4cc(C(F)(F)F)ccc4F)n(C4CCC(N)CC4)c3n2)CCOCC1 (stereo not drawn) .
## Result 6.46 to 6.82

## Task Print IL3000 T. congolense (drug sensitive) strain pIC50 for CC1(Nc2ncc3nc(Nc4cc(F)cc(F)c4)n([C@H]4CC[C@@H](CN)CC4)c3n2)CCOCC1 .
## Result > 6.82

## Task Print IL3000 T. congolense (drug sensitive) strain pIC50 for CC1(Nc2ncc3nc(Nc4cccc(OC(F)(F)F)c4)n([C@H]4CC[C@@H](CN)CC4)c3n2)CCOCC1 .
## Result > 6.82

## Task Print IL3000 T. congolense (drug sensitive) strain pIC50 for CN(C)C[C@H]1CC[C@@H](n2c(Nc3cccc(Cl)c3)nc3cnc(NC4(C)CCOCC4)nc32)CC1 .
## Result > 6.82

## Task Print IL3000 T. congolense (drug sensitive) strain pIC50 for CC1(Nc2ncc3nc(Nc4cncc(Cl)c4)n([C@H]4CC[C@@H](CN)CC4)c3n2)CCOCC1 .
## Result 6.46 to 6.82

## Task Print IL3000 T. congolense (drug sensitive) strain pIC50 for CC1(Nc2ncc3nc(Nc4cccc(Cl)c4)n([C@H]4CC[C@@H](CN5CCCCC5)CC4)c3n2)CCOCC1 .
## Result > 6.82

## Task Print IL3000 T. congolense (drug sensitive) strain pIC50 for CC1(C)CC(Nc2ncc3nc(Nc4cccc(Cl)c4)n([C@H]4CC[C@@H](CN)CC4)c3n2)CCO1 (stereo partly drawn) .
## Result 6.46 to 6.82

## Task Print IL3000 T. congolense (drug sensitive) strain pIC50 for CC(C)(C)Nc1ncc2nc(Nc3cc(Cl)cc(C(F)(F)F)c3)n(C3CCC(N)CC3)c2n1 (stereo not drawn) .
## Result 6.46 to 6.82

## Task Print IL3000 T. congolense (drug sensitive) strain pIC50 for CC1(Nc2ncc3nc(Nc4cccc(Cl)c4)n(C4CC(N)C4)c3n2)CCOCC1 (stereo not drawn) .
## Result > 6.82

## Task Print IL3000 T. congolense (drug sensitive) strain pIC50 for CC1(Nc2ncc3nc(Nc4cccc(Cl)c4)n([C@H]4CC[C@@H](N)CC4)c3n2)CCOCC1 .
## Result > 6.82

## Task Print IL3000 T. congolense (drug sensitive) strain pIC50 for CC1(Nc2ncc3nc(Nc4cc(Cl)cc(C(F)(F)F)c4)n(C4CCC(CN)CC4)c3n2)CCC1 (stereo not drawn) .
## Result 6.46 to 6.82

## Task Print IL3000 T. congolense (drug sensitive) strain pIC50 for CN(c1ncc2nc(Nc3cccc(Cl)c3)n([C@H]3CC[C@@H](CN)CC3)c2n1)C1CCOCC1 .
## Result 6.30 to 6.46

## Task Print IL3000 T. congolense (drug sensitive) strain pIC50 for CC1(Nc2ncc3nc(Nc4cccc(Cl)c4)n([C@H]4CC[C@@H](CO)CC4)c3n2)CCOCC1 .
## Result 6.30 to 6.46

## Task Print IL3000 T. congolense (drug sensitive) strain pIC50 for CC(C)(C)Nc1ncc2nc(Nc3cccc(C#N)c3)n(C3CCC(N)CC3)c2n1 (stereo not drawn) .
## Result 6.30 to 6.46

## Task Print IL3000 T. congolense (drug sensitive) strain pIC50 for CC1(Nc2ncc3nc(Nc4cccc(C(F)(F)F)c4)n([C@H]4CC[C@@H](CN)CC4)c3n2)CCOCC1 .
## Result > 6.82

## Task Print IL3000 T. congolense (drug sensitive) strain pIC50 for CCC(C)(C)Nc1ncc2nc(Nc3cccc(Cl)c3)n([C@H]3CC[C@@H](CN)CC3)c2n1 .
## Result > 6.82
